Reference source: patent US20160168119A1

- TEST_TARGET: Recombinant human ATX (Homo sapiens, UniProt Q13822)
- Construct: made in house; host or cells: human embryonic kidney (HEK) cells
- PROTOCOL_TEXT: ATX inhibition assay (choline release, Amplex Red fluorescence)
- Assay type: biochemical
PARAMETER_MEASURED: IC50

> print(dat)
                                   compound  parameter.measured  experimental.result
1  Cc1nnn(Cc2cc(C(F)(F)F)ccc2/C=C/C(=O)N(C)CCOc2ccccc2)n1 [Example 6.2]                IC50                 9 nM

* * *

- TEST_TARGET: Recombinant human ATX (Homo sapiens, UniProt Q13822)
- Construct: made in house; host or cells: human embryonic kidney (HEK) cells
- PROTOCOL_TEXT: ATX inhibition assay (choline release, Amplex Red fluorescence)
- Type: biochemical
- DETAILS: ATX 10 nM, LPC 18:1 10 μM, pre-incubated 20 minutes at 37° C.; mean of n≧2; read-out: IC50
Below, each of the compounds is paired with its reported IC50 value.
PARAMETER_MEASURED: IC50

> print(dat)
                                    compound  parameter.measured  experimental.result
 1  Cc1nnn(Cc2cc(Cl)ccc2/C=C/C(=O)N(C)CC2CCN(C(=O)OC(C)(C)C)CC2)n1 [Example 1.1]                IC50                14 nM
 2  Cc1ccc(S(=O)(=O)N2CCC(CN(C)C(=O)/C=C/c3ccc(C(F)(F)F)cc3Cn3nnc(C)n3)CC2)cc1 [Example 4.2]                IC50               4.5 nM
 3  Cc1csc(CN(C)C(=O)/C=C/c2ccc(Cl)cc2Cn2nnc(C)n2)n1 [Example 2.2]                IC50                74 nM
 4  Cc1nnn(Cc2cc(C(F)(F)F)ccc2/C=C/C(=O)N(C)Cc2nnc(-c3ccccc3)o2)n1 [Example 6.4]                IC50                13 nM
 5  CCN(Cc1ccncc1)C(=O)/C=C/c1ccc(Cl)cc1Cn1nnc(C)n1 [Example 2.1]                IC50                64 nM
 6  CCN(C(=O)/C=C/c1ccc(C(F)(F)F)cc1Cn1nnc(C)n1)C1CCN(C(=O)OC(C)(C)C)CC1 [Example 1.2]                IC50                20 nM
 7  Cc1csc(CN(C)C(=O)/C=C/c2ccc(C(F)(F)F)cc2Cn2nnc(C)n2)n1 [Example 6.3]                IC50                40 nM
 8  Cc1nnn(Cc2cc(C(F)(F)F)ccc2/C=C/C(=O)N(C)CCCCc2cccnc2)n1 [Example 6.6]                IC50                49 nM
 9  Cc1nnn(Cc2cc(C(F)(F)F)ccc2/C=C/C(=O)N(C)CC2CC(=O)N(C(C)(C)C)C2)n1 (stereo not shown) [Example 6.8]                IC50                 7 nM
10  Cc1nnn(Cc2cc(C(F)(F)F)ccc2/C=C/C(=O)N(C)CC2CCN(S(=O)(=O)C3CC3)CC2)n1 [Example 4.1]                IC50               4.9 nM
11  Cc1cc(CN(C)C(=O)/C=C/c2ccc(C(F)(F)F)cc2Cn2nnc(C)n2)n(C)n1 [Example 6.1]                IC50               6.9 nM
12  Cc1nnn(Cc2cc(C(F)(F)F)ccc2/C=C/C(=O)N(C)CC2CCN(C(=O)c3ccc(F)cc3)CC2)n1 [Example 3]                IC50                10 nM
13  Cc1nnn(Cc2cc(C(F)(F)F)ccc2/C=C/C(=O)N(C)Cc2nc3ccccc3s2)n1 [Example 6.10]                IC50                12 nM
14  Cc1nnn(Cc2cc(C(F)(F)F)ccc2/C=C/C(=O)N(C)Cc2nc(-c3ccccc3)no2)n1 [Example 6.9]                IC50               5.3 nM
15  COc1ccc(CNC(=O)CN(C)C(=O)/C=C/c2ccc(C(F)(F)F)cc2Cn2nnc(C)n2)cc1 [Example 6.5]                IC50                16 nM
16  Cc1cc(CN(C)C(=O)/C=C/c2ccc(Cl)cc2Cn2nnc(C)n2)on1 [Example 2.3]                IC50                73 nM
17  Cc1nnn(Cc2cc(Cl)ccc2/C=C/C(=O)N(C)CC2CCCO2)n1 (stereo not shown) [Example 2.7]                IC50               183 nM
18  Cc1nnn(Cc2cc(Cl)ccc2/C=C/C(=O)N(C)CC2CC(=O)N(C(C)(C)C)C2)n1 (stereo not shown) [Example 2.6]                IC50                52 nM
19  Cc1nnn(Cc2cc(C(F)(F)F)ccc2/C=C/C(=O)N(C)Cc2nc(-c3ccccc3)cs2)n1 [Example 6.7]                IC50                 6 nM
20  CCN(CCOC)C(=O)/C=C/c1ccc(Cl)cc1Cn1nnc(C)n1 [Example 2.4]                IC50                50 nM
21  CCN(CC(O)c1cccc(O)c1)C(=O)/C=C/c1ccc(Cl)cc1Cn1nnc(C)n1 (stereo not shown) [Example 2.5]                IC50                94 nM
22  Cc1nnn(Cc2cc(C(F)(F)F)ccc2/C=C/C(=O)N(C)CC2CCN(Cc3ccc(F)cc3)CC2)n1 [Example 5]                IC50                13 nM
